testedSystem: Gamma-aminobutyric acid receptor subunit alpha-1 (Homo sapiens)
Sequence (whole entry): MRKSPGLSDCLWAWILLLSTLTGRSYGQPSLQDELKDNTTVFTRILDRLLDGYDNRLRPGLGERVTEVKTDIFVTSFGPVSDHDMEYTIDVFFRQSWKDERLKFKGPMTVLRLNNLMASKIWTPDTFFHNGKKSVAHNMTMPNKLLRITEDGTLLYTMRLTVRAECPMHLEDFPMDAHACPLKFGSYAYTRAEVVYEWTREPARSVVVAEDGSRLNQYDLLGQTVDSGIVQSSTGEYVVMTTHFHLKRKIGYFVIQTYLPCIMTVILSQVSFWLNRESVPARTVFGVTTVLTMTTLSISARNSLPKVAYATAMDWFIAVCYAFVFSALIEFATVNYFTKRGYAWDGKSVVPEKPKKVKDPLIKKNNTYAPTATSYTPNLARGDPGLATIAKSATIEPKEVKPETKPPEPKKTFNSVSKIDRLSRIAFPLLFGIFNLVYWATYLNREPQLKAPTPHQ
runDescription: Agonist activity at recombinant GABAA receptor subunit alpha-1 expressed in CHO cells at 3 uM by sensitive fluorometric read-out assay relative to midazolam
Type: functional, cell-based
property: Efficacy

Some solved cases for reference:
Efficacy for `Fc1ccc(COc2c3cnc4c(c3nn2-c2ccc(Cl)cc2)CCCC4)cc1` ?
24%

Looking for the measured Efficacy of `Clc1ccc(-n2nc3c4c(ncc3c2OCC2CC2)CCCC4)cc1` , can you help?
18%

Okay, now this compound:
Recorded Efficacy of `Clc1ccc(-n2nc3c(cnc4ccccc43)c2OCc2ccccc2Cl)cc1` , please.
13%

====

testedSystem: Gamma-aminobutyric acid receptor subunit alpha-1 (Homo sapiens, UniProt P14867)
runDescription: Displacement of [3H]flumazenil from GABAA receptor subunit alpha-1 expressed in CHO cells
Assay type: cell-based
property: IC50 (nM)

Example cases with answers are listed next.
What is its IC50 for Gamma-aminobutyric acid receptor subunit alpha-1 (Homo sapiens, UniProt P14867)? Entry: `Clc1ccc(-n2nc3c4c(ncc3c2OCc2ccccc2Cl)CCCCC4)cc1`
242

Recorded IC50 for `CC1(C)CCc2ncc3c(OCc4ccccc4Cl)n(-c4ccc(Cl)cc4)nc3c2C1` with Gamma-aminobutyric acid receptor subunit alpha-1 (Homo sapiens, UniProt P14867), please?
67

# get_value(readout= IC50, system= Gamma-aminobutyric acid receptor subunit alpha-1 (Homo sapiens, UniProt P14867)) for O=C1C2C=Nc3ccccc3C2=NN1c1ccc(Cl)cc1 (centres undefined)
1

Form: Entry = `Clc1ccccc1COc1c2cnc3ccccc3c2nn1-c1ccc2c(c1)OCO2` | System = Gamma-aminobutyric acid receptor subunit alpha-1 (Homo sapiens, UniProt P14867) | IC50 = ____
50

# query: IC50 | item `Clc1ccc(-n2nc3c(cnc4ccccc43)c2OCC2CC2)cc1` | system: Gamma-aminobutyric acid receptor subunit alpha-1 (Homo sapiens, UniProt P14867)
74

Observed IC50 on Gamma-aminobutyric acid receptor subunit alpha-1 (Homo sapiens, UniProt P14867) for `Clc1ccc(-n2nc3c4c(ncc3c2OCC2CC2)CCCC4)cc1` , please.
94

Form: Entry = `Fc1ccccc1-n1nc2c(cnc3ccccc32)c1OCc1ccccc1Cl` | System = Gamma-aminobutyric acid receptor subunit alpha-1 (Homo sapiens, UniProt P14867) | IC50 = ____
1

Return IC50 measured with Gamma-aminobutyric acid receptor subunit alpha-1 (Homo sapiens, UniProt P14867) given this compound: `Clc1ccc(-n2nc3c(cnc4ccc(-n5ccnc5)cc43)c2OCC2CC2)cc1`
134

P. Fc1ccccc1COc1c2cnc3c(c2nn1-c1ccc(Cl)cc1)CCCC3
Q. Clc1ccc(COc2c3cnc4c(c3nn2-c2ccc(Cl)cc2)CCCC4)cc1
For P and Q , which recorded IC50 is lower? Refer to your chosen entry by its label in the reply.
P
